experimentalTarget: Tryptase (Homo sapiens, UniProt Q9BZJ3+Q15661+Q9NRR2)
assayDetails: Evaluated for its inhibitory potency against tryptase
Type: protein assay
Kindly apply the following: label 1 if Ki is less than 100 nM, label 0 in every other case.

INPUT: In the record for "CC(=N)N1CCC(CCNC(=O)N2CCN(C(=O)O[C@H]3CCC[C@@H](OC(=O)N4CCN(C(=O)NCCC5CCN(C(C)=N)CC5)CC4)CCC3)CC2)CC1" , is Ki less than 100 nM?
OUTPUT: label 0

INPUT: hey, is Ki for "O=C(NCCC1CCNCC1)N1CCN(C(=O)O[C@H]2CCC[C@@H](OC(=O)N3CCN(C(=O)NCCC4CCNCC4)CC3)CCC2)CC1" lower than 100 nM or not?
OUTPUT: label 0

INPUT: I wonder whether "N=C(N)Nc1ccc(CNC(=O)N2CCN(C(=O)OC[C@H]3CC[C@H](COC(=O)N4CCN(C(=O)NCc5ccc(NC(=N)N)cc5)CC4)CC3)CC2)cc1" has Ki below 100 nM. Can you tell?
OUTPUT: label 1

INPUT: Field: below-cutoff. Rule: recorded Ki strictly less than 100 nM. Subject: "N=C(N)c1ccc(CCNC(=O)N2CCN(C(=O)O[C@H]3CCC[C@@H](OC(=O)N4CCN(C(=O)NCCc5ccc(C(=N)N)cc5)CC4)CCC3)CC2)cc1"
OUTPUT: label 0

INPUT: Lab note: Ki threshold 100 nM. Does this molecule come in strictly under it? "N=C(N)Nc1ccc(CNC(=O)N2CCN(C(=O)O[C@H]3CCC[C@@H](OC(=O)N4CCN(C(=O)CCSc5ccncc5)CC4)CCC3)CC2)cc1"
OUTPUT: label 1

INPUT: Please determine if "NCC12CCC(CNC(=O)N3CCN(C(=O)O[C@H]4CCC[C@@H](OC(=O)N5CCN(C(=O)NCC67CCC(CN)(CC6)CC7)CC5)CCC4)CC3)(CC1)CC2" is below 100 nM in terms of Ki.
OUTPUT: label 0

###

experimentalTarget: Prothrombin (Homo sapiens)
assayDetails: Compound was evaluated for its inhibitory potency against thrombin
pKi: −log10 of the molar value.
So I've got a bunch of molecules here, and I need their pKi values.

Answered cases to consult:
> print(dat)
                               smilesstring  measurementlabel  result
1  N=C(N)Nc1ccc(CNC(=O)N2CCN(C(=O)O[C@H]3CCC[C@@H](OC(=O)N4CCN(C(=O)NCCCCN)CC4)CCC3)CC2)cc1               pKi  < 3.00
2  N=C(N)Nc1ccc(CNC(=O)N2CCN(C(=O)O[C@H]3CCC[C@@H](OC(=O)N4CCN(C(=O)NCCc5ccncc5)CC4)CCC3)CC2)cc1               pKi  < 3.00
3  NC[C@H]1CC[C@H](CNC(=O)N2CCN(C(=O)O[C@H]3CCC[C@@H](OC(=O)N4CCN(C(=O)NC[C@H]5CC[C@H](CN)CC5)CC4)CCC3)CC2)CC1               pKi  < 3.00

Give one value of pKi per listed molecule.
1. N=C(N)Nc1ccc(CNC(=O)N2CCN(C(=O)OCC34CCC(COC(=O)N5CCN(C(=O)NCc6ccc(NC(=N)N)cc6)CC5)(CC3)CC4)CC2)cc1
2. N=C(N)c1ccc(CCC(=O)N2CCN(C(=O)O[C@H]3CCC[C@@H](OC(=O)N4CCN(C(=O)CCc5ccc(C(=N)N)cc5)CC4)CCC3)CC2)cc1
3. N=C(N)Nc1ccc(CNC(=O)N2CCN(C(=O)O[C@H]3CCC[C@@H](OC(=O)N4CCN(C(=O)CCCC5CCNCC5)CC4)CCC3)CC2)cc1

OUTPUT:
[3.91, 4.54, "< 3.00"]

Please go through the list and note pKi for each molecule.
1. N=C(N)Nc1ccc(CNC(=O)N2CCN(C(=O)O[C@H]3CCC[C@@H](OC(=O)N4CCN(C(=O)CCNc5ccncc5)CC4)CCC3)CC2)cc1
2. N=C(N)c1ccc(CCNC(=O)N2CCN(C(=O)O[C@H]3CCC[C@@H](OC(=O)N4CCN(C(=O)NCCc5ccc(C(=N)N)cc5)CC4)CCC3)CC2)cc1
3. N=C(N)Nc1ccc(CNC(=O)N2CCN(C(=O)OCc3ccc(COC(=O)N4CCN(C(=O)NCc5ccc(NC(=N)N)cc5)CC4)cc3)CC2)cc1

OUTPUT:
< 3.00
4.44
< 3.00

Look at each molecule and report its pKi.
1. NCc1ccc(CNC(=O)N2CCN(C(=O)O[C@H]3CCC[C@@H](OC(=O)N4CCN(C(=O)NCc5ccc(CN)cc5)CC4)CCC3)CC2)cc1
2. CN1CCC(CCNC(=O)N2CCN(C(=O)O[C@H]3CCC[C@@H](OC(=O)N4CCN(C(=O)NCc5ccc(NC(=N)N)cc5)CC4)CCC3)CC2)CC1

OUTPUT:
["< 3.00", 3.57]

Below is a list of molecules. For each, state its recorded pKi.
1. CC(=N)N1CCC(CCNC(=O)N2CCN(C(=O)O[C@H]3CCC[C@@H](OC(=O)N4CCN(C(=O)NCCC5CCN(C(C)=N)CC5)CC4)CCC3)CC2)CC1
2. N=C(N)Nc1ccc(CNC(=O)N2CCN(C(=O)O[C@H]3CCC[C@@H](OC(=O)N4CCN(C(=O)NCCCCCN)CC4)CCC3)CC2)cc1

OUTPUT:
1. < 3.00
2. < 3.00
